target: Integrin alpha-2 (Homo sapiens) (UniProt P17301); test: Inhibition of integrin alpha-2 domain binding to collagen 1 by Europium-labeled anti-GST assay relative to control; settings: concentration not given here
Sequence (P17301 whole entry): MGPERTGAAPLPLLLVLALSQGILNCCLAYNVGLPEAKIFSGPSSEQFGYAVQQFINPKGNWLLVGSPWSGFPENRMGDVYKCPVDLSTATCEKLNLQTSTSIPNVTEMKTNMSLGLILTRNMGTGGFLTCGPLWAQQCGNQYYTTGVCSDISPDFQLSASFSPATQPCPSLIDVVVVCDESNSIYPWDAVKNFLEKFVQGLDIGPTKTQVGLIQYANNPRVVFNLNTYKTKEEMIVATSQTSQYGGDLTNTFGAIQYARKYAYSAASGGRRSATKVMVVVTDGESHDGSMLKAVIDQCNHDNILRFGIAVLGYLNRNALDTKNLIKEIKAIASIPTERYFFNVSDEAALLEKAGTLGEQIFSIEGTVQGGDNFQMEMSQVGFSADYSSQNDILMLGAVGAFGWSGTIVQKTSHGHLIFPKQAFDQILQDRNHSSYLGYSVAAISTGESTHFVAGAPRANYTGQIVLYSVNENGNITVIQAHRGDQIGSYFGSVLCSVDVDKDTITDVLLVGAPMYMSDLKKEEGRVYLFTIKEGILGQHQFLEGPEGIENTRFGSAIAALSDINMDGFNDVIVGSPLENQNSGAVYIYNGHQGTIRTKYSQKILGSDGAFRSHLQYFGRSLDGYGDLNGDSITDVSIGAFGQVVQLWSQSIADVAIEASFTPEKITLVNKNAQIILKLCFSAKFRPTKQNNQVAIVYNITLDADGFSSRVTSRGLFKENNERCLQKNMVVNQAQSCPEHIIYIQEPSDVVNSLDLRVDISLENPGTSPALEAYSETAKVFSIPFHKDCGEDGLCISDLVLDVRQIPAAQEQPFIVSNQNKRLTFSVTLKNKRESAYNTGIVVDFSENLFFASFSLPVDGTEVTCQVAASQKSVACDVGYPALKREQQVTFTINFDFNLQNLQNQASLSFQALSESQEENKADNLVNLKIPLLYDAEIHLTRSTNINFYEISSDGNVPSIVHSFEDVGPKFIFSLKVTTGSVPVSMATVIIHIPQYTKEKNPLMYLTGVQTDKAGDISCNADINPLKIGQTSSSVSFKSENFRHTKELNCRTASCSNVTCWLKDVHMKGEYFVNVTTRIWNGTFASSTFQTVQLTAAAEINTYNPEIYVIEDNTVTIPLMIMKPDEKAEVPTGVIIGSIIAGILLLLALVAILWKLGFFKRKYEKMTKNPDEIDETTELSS
readout_name: inhibition (%)

>>> df
                                   compound  readout_name  numeric_result
0  CCc1cc(O)c2c(O)c3c(c(O)c2c1C(=O)OC)C(=O)c1cccc(O)c1C3=O [ANHYDROMAGGIEMYCIN]    inhibition             100
1  COC(=O)c1c(C(C)C)cc(O)c2c(O)c3c(c(O)c12)C(=O)c1cccc(O)c1C3=O    inhibition              90

I = CCC1(O)CC(=O)c2c(O)c3c(c(O)c2C1C(=O)OC)C(=O)c1cccc(O)c1C3=O (centres undefined)
II = CCc1cc(NCCO)c2c(O)c3c(c(O)c2c1C(=O)OC)C(=O)c1cccc(O)c1C3=O
Which numeric inhibition is bigger, that of I or that of II ? Choose, then provide that item's label.
I
